Biological target: factor VIIa/tissue factor complex (Homo sapiens, UniProt P08709)
Construct: 9 nM of soluble factor VIIa
Sequence (P08709 213-466 limits assumed): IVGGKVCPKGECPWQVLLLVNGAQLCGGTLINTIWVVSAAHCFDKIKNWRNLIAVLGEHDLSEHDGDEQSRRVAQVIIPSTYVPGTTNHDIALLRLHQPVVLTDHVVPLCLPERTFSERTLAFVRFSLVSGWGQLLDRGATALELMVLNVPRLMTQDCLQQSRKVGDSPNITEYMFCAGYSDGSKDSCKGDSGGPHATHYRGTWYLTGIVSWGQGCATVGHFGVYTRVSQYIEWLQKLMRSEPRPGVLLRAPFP
Sequence (P08709 61-212 partner limits assumed): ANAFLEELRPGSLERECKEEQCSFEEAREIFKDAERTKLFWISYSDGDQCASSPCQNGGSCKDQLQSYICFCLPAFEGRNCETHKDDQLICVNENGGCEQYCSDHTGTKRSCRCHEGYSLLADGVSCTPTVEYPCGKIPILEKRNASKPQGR
Sequence (P13726 33-295 partner): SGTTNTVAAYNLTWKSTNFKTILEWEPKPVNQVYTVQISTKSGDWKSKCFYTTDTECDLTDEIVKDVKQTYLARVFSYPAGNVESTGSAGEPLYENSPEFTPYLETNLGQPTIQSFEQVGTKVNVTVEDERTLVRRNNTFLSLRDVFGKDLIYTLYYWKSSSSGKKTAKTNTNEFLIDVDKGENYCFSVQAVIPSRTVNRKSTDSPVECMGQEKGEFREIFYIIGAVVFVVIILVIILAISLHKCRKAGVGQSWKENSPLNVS
Assay: inhibition of the amidolytic activity of factor VIIa/tissue factor complex (chromogenic peptide substrate)
Conditions: 26 nM tissue factor, 9 nM soluble factor VIIa, 8 mM calcium chloride, substrate Chromozym-tPA, pH 7.5, room temperature
Measured Attribute: Ki (nM)

1. COc1cc(OCC(=O)O)c(C(Nc2ccc(C(=N)N)cc2)C(=O)O)cc1OC (racemic) [Example 17]
2. COc1cc(OC)c(OCC(=O)O)c(C(Nc2ccc(C(=N)N)cc2)C(=O)O)c1 (racemic) [Example 15]
Sort 1 and 2 by Ki descending and give the first. Let me know the label of the one you choose. 2
(2: 84 nM, 1: 38.5 nM)
